Quick reference for protease stability score among some sequences
- ASSAY_DETAILS: protease stability score; higher = more stable; yeast display proteolysis, trypsin and chymotrypsin;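 also: relative to predicted unfolded state with 0 unfolded-like and 1 meaning tenfold more protease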
Respond numerically, and do not add a unit to the figure.

Entry under test: `DEEHEIVELIMRIFLHAVLTGDWELIEKLADPNVRIIIRINGQEIHFHGREHLRHRFEHLRIDRMEIHDYKNVGDWLDIDGRENGNFNGRKHETRVHIHIRVINGKLHELRVTYR` . Its protease stability score was 1.68

Entry under test: `DEKTKEVEHLTEYLREVWETGDFESLHEMMDPHVRVDIGDKHVHGREAVAHHFRKHLENWGVTRFRIEFHVRDVRDINGVVHLDTELRILFDGVLITMRTRFIIEKINGRWVFREVIVR` . Its protease stability score was 2.63

Moving on to another sequence below.
Entry under test: `SEEEKEVKEHLKIIHDVIRTGNEHDIKELMDPNMLLVFNGQKHIGRDHWEELLKKLGADHVHLHIRSFTIINGQARLETEVEWRAENRTIRRETEIVTDKINGRWIIHTIIFR` . Its protease stability score was 1.5

====

Quick reference for protease stability score among some sequences
- ASSAY_DETAILS: protease stability score; higher = more stable; yeast display proteolysis, trypsin and chymotrypsin;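 also: relative to predicted unfolded state with 0 unfolded-like and 1 meaning tenfold more protease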
Respond numerically, and do not add a unit to the figure.

Consider the reported protease stability score for these sequences:
Entry under test: `TEEEEHASRIARLWLDMLLTGDWHTLDRLLDPHVRLEVNGQERIGREQIIKFEEERKRQLRINDVRTRHIHSQGDKLHIVTEADGEIDGKRTNVDTRIQIKVVDGVVEEVKFDIK` . Its protease stability score was 0.736

Entry under test: `DEVEHIVRWMVELLMRALQTGDEETLTRLMDPHARHEIDGKESHGREFLDTLKRRFKNIQWHSIEIEDYKHYDGRVEIHGILHVRVGDKRHEIHIEFVIQKIDGRWHVDRLHLK` . Its protease stability score was 1.55

Entry under test: `SEIDREAEELVHLLAEFVETGNEERWLELLDPHVRLDFDGVISHGREHYIEFWRRLKENLGIDKVSFRVRRRKTQGEKAHSDMETDINGQKYHMEVLVVVINGVVKHSEFHYN` . Its protease stability score was 1.07

More entries:
Entry under test: `DEEERLMKELSDRFLHMKETGDEELFHKLADPNVRVEIGDKSRHGRELATEFLSWVMKELGVKHVKLHDKRTYDGRVHLNGTLEFNGREFRVRITVIIVNGRVHDIRVELE` . Its protease stability score was 0.771

====

- ASSAY_DETAILS: protease stability score; higher = more stable; yeast display proteolysis, trypsin and chymotrypsin;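 also: relative to predicted unfolded state with 0 unfolded-like and 1 meaning tenfold more protease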
Quick reference for protease stability score among some sequences
Respond numerically, and do not add a unit to the figure.

Consider the reported protease stability score for these sequences:
Entry under test: `SEEERDTIEFARLWLENYLTGDEETMKELADPRTLSTFRFENHHLHLHGMHLHFTWLHQIRIRHFQPREVSVVNGKTTIDGEYHGEVGDKSHTTRVIIRLEIVNGKIKSVEIEVK` . Its protease stability score was 1.07

Entry under test: `SEDERDSEEWAKILIKLLETGDEDELRRLMDPHVRTEVIVNGRTITHHGREDLTEFLRKLGADVIDIERVRVIDGVVHLDSRSKQGEKHVTLHFEALKINGRWITERFHVKFH` . Its protease stability score was 1.3

Entry under test: `DEEEEILREFSEKWLHAFRTGDWRDIWHLMDPHVKVIIFVDGREKEIHGREEYATQLHERLEKVKGMRFRDKDMDHVNGRLVINVTVHQGDKHKEFRIIIDVVNGRVKRIEIHLH` . Its protease stability score was 2.06

Entry under test: `DEDNREIKHAIHLLLTAFLTGNEDWLKELADPNVRILFNGRLFHGREHFLKFLLKFLRDYGIDHNHIQHSHLEIQGNFVHTHLHLEIDVNGRRQEFELRVISEKINGRWHLRELEVHIR` . Its protease stability score was 2.43

Entry under test: `DEDHELVEKFLRQMIFAQITGDWRFMMHLADPHVRYEVGDKHYHGREDMERVFREWRVNSIRIEHIRIIGDKAETHQDEDGHIDGRRIELHVRLILLKVDGRWIVHNSHII` . Its protease stability score was 1.37

More entries:
Entry under test: `HEDEELSEWMEREMIDIMRTGDEHRFLRMADPNTRFEFNGKDIHGRERVLDVLEFLGIDHMEFEDSKVRLYDGRVEVRLEGRINVGDKQSESRITIKAEKINGRWVLHEVSIEHH` . Its protease stability score was 0.821

Entry under test: `DEAEEHMRRYSELMMKSFLTGDEHTLRKLADPHTKLIFNGKELHGREEVARVFTWSREELGVDHQDVRHVSVRLVDGRVHVDIILEVNVGDKRFQVHIHLTILKYDGRWFVESVHIEIR` . Its protease stability score was 0.285

Entry under test: `DEDEKYMQEFLERLWRDLYTGDEESLTRRMDPRTRVDINGVDIHGMERVTEHIKHLVDRADHIELIIHTVNNVDGRAHNDGILVIKVNGREIRIETHFVLLKVDGRWRIQSEEYR` . Its protease stability score was 0.399

Entry under test: `EEDDKFSELAFNMLVESFKTGDEQHWRELADPRVKYQIDGRDLIGWTAFRRFLNEFGIDHMHIKLHDHRDYNGQVELDETLEIRYGDKTEHIKVTTIVHKINGQWIVKSFSVH` . Its protease stability score was 0.682

Entry under test: `DEEMQLAEEMSRKFLHNWHTGDWRIMSHLIDPDVKIIIVVGDKRIELHGRENFVKEIIRWLHHLRETDRRVDHLRIQGDKAHVRVTVHVRYGDKTMDLDEDIRILVVNGKIHSIEIIQV` . Its protease stability score was 1.02

Entry under test: `SEEDEIAKHVWERFFKNVLTGDEDTLLRLLDPDTRLIVIIGDKEIHLHGREELSKFLSELRIHHLEITDWVSQGEKARTHVRSDGTVDGKRHHTEMELILIVINGRIKEIRILVR` . Its protease stability score was 1.07

Entry under test: `SEDEHIADMVIKELQHILNTGDEDRLRDLMDPNTRFDINGRHIHGREDVAHWLAREVLEMRVEFHLEHWDIVDGRIHIHSNVLIIVGNKIIRIKTEILIIKIDGRWYVEELKFR` . Its protease stability score was 1.36

Entry under test: `EEERKEVKFAFDIWSELFLTGDEEDIHHLADPDVRLDINGKNIHGMELIHKIILHDILEWRLEVRVKHIEVQGDKAEIQMELKFRYNGREKHYKFRIIYKKFDGQWRYESIHMR` . Its protease stability score was 1.71

Entry under test: `TEEEELRRRHAKELLDIWRTGDEHLMSHLADPHVRSIIDGVTVIGRDEWMKYLRILREHLGVKHIEHKDFNIQGDKVDVHGTMHVNGREIEVRSHFYVIDGRVRSNEIRFH` . Its protease stability score was 0.256

Entry under test: `DEHEHLMLKVVLISIRALLTGDEDRFEHLADPHTRVEVNGVERHGREEYRKWLEHIRIKHIEVEESRAQGDFVHLNGRLRVSYGDKRFETETRWDWIIVDGKLKEMRIRIN` . Its protease stability score was 1.26

Entry under test: `HEIEEEVENAVRLISHLLLTGDEETLHDLADPEMRTIVGDKHLHGREMWSEVIRRLGVDVLVIKEIRVQGDWIHSDGVLLVNGQERDAKIHVRKVNGKWVITTFQLK` . Its protease stability score was 1.8

====

- ASSAY_DETAILS: protease stability score; higher = more stable; yeast display proteolysis, trypsin and chymotrypsin;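 also: relative to predicted unfolded state with 0 unfolded-like and 1 meaning tenfold more protease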
ASSAY_ENDPOINT: protease stability score
Respond numerically, and do not add a unit to the figure.

Entry under test: `SENHRNLLEWARIALEALITGDWKMLLDLLDPNVRFIFNGVHLHGMEHVFHRMTREIKEIRIKFEVHDMRSIGEKVEMDTRRHVEVNGVETTIDTRVHVVVIDGVIHEIRIEHR` . Its protease stability score was 1.1

Entry under test: `HRDEELSEEILRLILEILRTGDEDELRRLIDPHVRVSIGDKEKHGREWYLELVNVAGIKYIELKRIHVIGDKAHFETYVHVDGRDISLQFIILKINGKWFITSIRIETR` . Its protease stability score was 1.4

Entry under test: `HEQEKFVREYFELWVRAFLTGDEDTILDMMDPDVRIIYGDKTVVGWKELHKFLKRVDHARIKFEFRNTRYDENEAEVDGHRIVHLFFDGKIFDITTQIHVHMVKIDGVWTMKTIVNK` . Its protease stability score was 1.55

Entry under test: `DEDTRMNELFVRLFYELLTTGDEEHIHEMFDPHARLDFDGQQYHGREDAVRKMHELSRRLGIKHIEIREFRKVGDWANLHGKIYVNGQEYELHVILHKVDGRWITRDIRIK` . Its protease stability score was 1.3

Entry under test: `DEDHEAVERLLEHLQTAFLTGDWRREDELVDPNARVHFNGQERHGRHVLRYVNEFLEDRFKNLQIRHSTVHDSHVQGDKIILFTSYELRVDGREFSLKTKIIFHKVDGRWLVTHLYIE` . Its protease stability score was 0.823

Moving on to another sequence below.
Entry under test: `DERTEYFIREAREMLRDWVTGDWKRLHELMDPNARQDVNGVKNVGRDELSEFFEKFRERFDVYELRITEERHQGNKFIVKGDFHSNQGEFTFHHELEVHIVVVNGQFKRIEMRIR` . Its protease stability score was 1.55
